Entry source: ChEMBL document CHEMBL3988442

Molecular target: Arginase-2, mitochondrial (Homo sapiens)
Sequence (whole entry): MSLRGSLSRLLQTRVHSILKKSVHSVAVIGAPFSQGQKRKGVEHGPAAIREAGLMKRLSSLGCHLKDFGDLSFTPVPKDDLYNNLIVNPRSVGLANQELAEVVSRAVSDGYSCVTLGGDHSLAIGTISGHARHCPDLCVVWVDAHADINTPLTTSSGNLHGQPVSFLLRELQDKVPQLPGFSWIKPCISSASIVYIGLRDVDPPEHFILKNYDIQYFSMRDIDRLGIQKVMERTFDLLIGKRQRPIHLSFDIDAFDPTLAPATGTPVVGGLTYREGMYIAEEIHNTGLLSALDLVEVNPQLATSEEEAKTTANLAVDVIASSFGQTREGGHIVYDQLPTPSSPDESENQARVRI
Test: in vitro enzyme assay to detect the production of urea directly proportional to the activity of Arginase II
Assay type: functional
Parameters: scale not given: in the data most compounds retested in dose-response had high values
Conditions: 33.3 µM
Please respond with reported Percent Effect for every item in the list.
The reply should contain only the number, in %.

Determine its reported Percent Effect: c1cnnc(N2CCCC2CNc2nc3ccccc3o2)c1 (centres undefined)
4.95

Determine its reported Percent Effect: O=C(c1cncc(N2CCC3(CCNCC3)CC2)n1)N1CCCC1
33.9

Determine its reported Percent Effect: Nc1ncc2c(n1)CN(C1CCCC1)C2=O
-168

Determine its reported Percent Effect: CN(Cc1ccc2c(c1)OCO2)Cc1nc2c(cnn2C)c(=O)[nH]1
-4.32

Determine its reported Percent Effect: CC(C)c1noc(C(C)N2CCN(CCO)CC2)n1 (centres undefined)
-9.22

Determine its reported Percent Effect: c1cc(CNCc2ccc3c(c2)CCO3)cc(N2CCOCC2)n1
0.744

Determine its reported Percent Effect: COc1ccc(C2C3=C(COC3=O)Nc3[nH]nc(C)c32)cc1OC (centres undefined)
-10.7

Determine its reported Percent Effect: O=C(c1cc(Cl)cc(Cl)c1)N1CCN(c2nccs2)CC1
10.4

Determine its reported Percent Effect: Cc1nn(C)c(C)c1C1CCCN1CC(=O)NC(C1CC1)C1CC1 (centres undefined)
-4.01

Determine its reported Percent Effect: CCn1ccnc1-c1nc2cc(S(=O)(=O)N3CCCC3)ccc2n1C
6.36

Determine its reported Percent Effect: CC1=Nc2c(c(=O)[nH]n2C2CCOCC2)C(c2cccc(Br)c2)S1 (centres undefined)
82.6

Determine its reported Percent Effect: Cc1nc(C2CCCN(C(=O)CCCn3cccn3)C2)no1 (centres undefined)
-0.356

Determine its reported Percent Effect: CCC(C)(NCC(=O)Nc1nc(C)cs1)c1nc(C)cs1 (centres undefined)
-2.73

Determine its reported Percent Effect: Cc1nc(CN2CCCn3c(nc(Cn4ccnc4)cc3=O)C2)cs1
1.23

Determine its reported Percent Effect: COc1ccc(CN(C)C(=O)CCC(=O)c2cccs2)c(OC)c1OC
-6.39

Determine its reported Percent Effect: CCN(CC)C(C(=O)NCc1ccc(N2CCCC2)nc1)C(C)C (centres undefined)
-4.41

Determine its reported Percent Effect: CC(C)n1cc(S(=O)(=O)N2CCCCC2)cn1
-2.29

Determine its reported Percent Effect: CCS(=O)(=O)N1CCc2ccc(NC(=O)Nc3ccc(F)cc3F)cc21
-3.23

Determine its reported Percent Effect: Cc1ccc(C(=O)N2CCc3c(CNS(C)(=O)=O)cncc3C2)o1
-55

Determine its reported Percent Effect: O=c1cc2c(nn1CN1CCN(c3ccccc3)CC1)CCC2
-1.23

Determine its reported Percent Effect: CCNc1cc2c(nn1)CCN(C(=O)c1ccc(NC3CC3)nc1)C2
1.15

Determine its reported Percent Effect: Cc1nn(C)c(N2CCOCC2)c1CNC1CCc2ccccc2C1 (centres undefined)
-2.28

Determine its reported Percent Effect: Cc1cnn(C2CN(Cc3nc(C(C)(C)C)no3)C2)c1
2.49

Determine its reported Percent Effect: Clc1snnc1CN1CCCC(Cn2cncn2)C1 (centres undefined)
-1.52

###

Please respond with reported Percent Effect for every item in the list.
Molecular target: Chromo domain-containing protein 1 (Saccharomyces cerevisiae (strain ATCC 204508 / S288c) (Baker's yeast)) (UniProt P32657)
Sequence (P32657 whole entry, the tested form may be a part): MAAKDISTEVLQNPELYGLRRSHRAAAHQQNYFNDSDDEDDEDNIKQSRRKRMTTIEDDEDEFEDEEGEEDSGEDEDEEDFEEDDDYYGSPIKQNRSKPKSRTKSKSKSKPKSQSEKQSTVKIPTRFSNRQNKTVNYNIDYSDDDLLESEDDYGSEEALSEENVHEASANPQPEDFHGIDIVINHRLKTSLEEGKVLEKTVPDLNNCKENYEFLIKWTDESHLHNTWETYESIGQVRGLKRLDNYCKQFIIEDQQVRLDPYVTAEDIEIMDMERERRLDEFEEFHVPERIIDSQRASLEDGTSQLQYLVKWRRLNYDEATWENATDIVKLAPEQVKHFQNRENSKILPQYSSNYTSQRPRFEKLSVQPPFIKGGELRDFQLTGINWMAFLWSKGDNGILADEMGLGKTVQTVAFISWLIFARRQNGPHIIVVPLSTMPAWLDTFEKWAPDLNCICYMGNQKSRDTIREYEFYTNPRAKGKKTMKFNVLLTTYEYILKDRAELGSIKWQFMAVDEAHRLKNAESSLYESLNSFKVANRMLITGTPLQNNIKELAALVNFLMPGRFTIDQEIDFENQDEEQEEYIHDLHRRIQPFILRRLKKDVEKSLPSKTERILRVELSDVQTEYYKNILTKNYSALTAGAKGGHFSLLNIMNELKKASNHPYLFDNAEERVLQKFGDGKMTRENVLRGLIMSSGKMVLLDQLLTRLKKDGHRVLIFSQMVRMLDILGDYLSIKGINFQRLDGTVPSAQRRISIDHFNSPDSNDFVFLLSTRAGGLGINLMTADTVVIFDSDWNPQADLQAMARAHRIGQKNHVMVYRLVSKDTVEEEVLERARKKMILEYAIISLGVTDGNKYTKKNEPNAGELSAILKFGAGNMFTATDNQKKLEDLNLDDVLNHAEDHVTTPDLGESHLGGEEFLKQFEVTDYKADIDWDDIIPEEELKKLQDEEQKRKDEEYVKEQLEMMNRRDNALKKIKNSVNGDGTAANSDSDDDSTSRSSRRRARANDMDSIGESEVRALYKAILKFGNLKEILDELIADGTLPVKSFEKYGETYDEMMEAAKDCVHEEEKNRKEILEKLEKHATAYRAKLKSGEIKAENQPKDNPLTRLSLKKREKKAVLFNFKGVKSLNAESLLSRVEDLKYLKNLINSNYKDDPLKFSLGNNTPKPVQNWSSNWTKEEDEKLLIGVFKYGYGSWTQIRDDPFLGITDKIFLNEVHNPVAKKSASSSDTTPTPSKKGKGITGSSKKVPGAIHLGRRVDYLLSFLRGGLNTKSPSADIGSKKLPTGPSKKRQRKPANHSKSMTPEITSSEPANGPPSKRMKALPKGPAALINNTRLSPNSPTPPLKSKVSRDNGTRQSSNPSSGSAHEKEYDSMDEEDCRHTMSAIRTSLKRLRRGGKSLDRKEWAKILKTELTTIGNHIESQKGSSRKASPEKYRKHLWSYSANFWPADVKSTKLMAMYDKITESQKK
Assay: ScCHD-1 Enzyme Inhibition Assay
Assay type: functional
Design: scale not given: in the data most compounds retested in dose-response had high values
Conditions: 30 µM
The reply should contain only the number, in %.

Determine its reported Percent Effect: Cc1nc(C2CCCN2C(=O)c2ccccc2)ncc1C(N)=O (centres undefined)
-6.6

Determine its reported Percent Effect: CC1CCN(C(=O)CN(Cc2ccco2)C2CC2)CC1
-5.98

Determine its reported Percent Effect: COc1ccc(CCC(=O)NC2CCC(O)CC2)cc1OC (centres undefined)
-1.04

Determine its reported Percent Effect: O=C(Cc1ccc2c(c1)CCO2)N1CCCCC1Cn1cccn1 (centres undefined)
-7.71

Determine its reported Percent Effect: CCC(NC(=O)C1CCN(S(C)(=O)=O)CC1)c1ccc(OC)c(C)c1 (centres undefined)
120

Determine its reported Percent Effect: CCCc1nc(CN2CCN(CC(O)c3ccccc3)CC2)no1 (centres undefined)
-26.1

Determine its reported Percent Effect: COCC(=O)N1CCC2(CC1)COCCN2CCN(C)C
0.531

Determine its reported Percent Effect: Cc1nc([C@@H]2C[C@@H]3CCN(C(=O)c4occc4C)C[C@H]3O2)no1
-4.87

Determine its reported Percent Effect: CCC1(CC)Cc2ccccc2-c2nc(NCCO)[nH]c(=O)c21
-13.3

Determine its reported Percent Effect: CC(C)OCCOCc1cccc(NC(=O)NCc2ccccn2)c1
-6.3

Determine its reported Percent Effect: CCn1nnc2c1C(COC)CN(C(=O)COc1ccccc1)C2 (centres undefined)
9.82

Determine its reported Percent Effect: COc1ccccc1CN1CC[C@]2(C[C@H](OC)CO2)C1
-5.98

Determine its reported Percent Effect: NS(=O)(=O)CCNC(=O)c1nnn(-c2ccccc2)c1C1CC1
-4.86

Determine its reported Percent Effect: Cc1cc(CN2CCN(C(=O)c3sccc3C3CC3)CC2)on1
-15.4

Determine its reported Percent Effect: CN(C)CCN(Cc1cccc(C(F)(F)F)c1)C(=O)c1cc[nH]n1
-3.17

Determine its reported Percent Effect: COc1cc(C(=O)N2CCC(c3n[nH]c(C4CC4)n3)CC2)ccc1C
-30.5

Determine its reported Percent Effect: Cc1cccc(COC[C@]23COC[C@H]2CN(C(=O)c2ccsc2)C3)n1
-5.97

Determine its reported Percent Effect: Cn1cc(C(=O)N[C@@H]2CN(Cc3cccs3)[C@@H]3CCCO[C@@H]32)cn1
-7.8

Determine its reported Percent Effect: CNc1cc(C2CCCN2Cc2ccccc2C(=O)O)ccn1 (centres undefined)
-11.7

Determine its reported Percent Effect: Cn1cc(CCC(=O)N2CCN(Cc3ccncc3)CC2)cn1
-5.86

Determine its reported Percent Effect: COc1cc(CN(C(=O)Nc2cccnc2OC)C2CC2)ccc1O
-4.72

Determine its reported Percent Effect: CCOc1ncccc1C(=O)N1CCCCC1c1nccs1 (centres undefined)
-9.25

Determine its reported Percent Effect: COc1ccccc1C1CNC(=O)c2nc(-c3ncc[nH]3)[nH]c2C1 (centres undefined)
-3.23

Determine its reported Percent Effect: Cc1ccc(C(=O)N2CCCC2c2nnc3n2CCCCC3)o1 (centres undefined)
-1.81

###

Biological target: Proteasome subunit beta (Trypanosoma cruzi) (UniProt O96673)
Sequence (O96673 as listed by the source): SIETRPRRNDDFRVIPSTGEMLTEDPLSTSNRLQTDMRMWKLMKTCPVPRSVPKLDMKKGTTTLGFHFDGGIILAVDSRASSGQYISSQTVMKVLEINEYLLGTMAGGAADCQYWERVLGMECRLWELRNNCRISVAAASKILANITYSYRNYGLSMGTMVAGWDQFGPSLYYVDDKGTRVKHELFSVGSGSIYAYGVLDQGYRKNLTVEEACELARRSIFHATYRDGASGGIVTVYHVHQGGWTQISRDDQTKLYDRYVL
Test: Trypanosoma cruzi proteasome chymotrypsin-like activity (TcProtChymo) assay.
Format: functional
Parameters: scale not given: in the data most compounds retested in dose-response had high values
Settings: 9.37 µM
assay-endpoint: Percent Effect (%)
The reply should contain only the number, in %.

Determine its reported Percent Effect: Cc1nc(CN2CCCC2c2nc(C(C)C)no2)cs1 (centres undefined)
9.47

Determine its reported Percent Effect: O=C(CCOCc1ccccc1)N1CCCC1c1noc(C2CC2)n1 (centres undefined)
5.22

Determine its reported Percent Effect: CCOc1ccccc1C(CC(=O)Nc1nc(C)cs1)NC(C)=O (centres undefined)
6.85

Determine its reported Percent Effect: CC(O)CC(C)(C)CNC(=O)NCc1cccc(-n2cncn2)c1 (centres undefined)
9.53

Determine its reported Percent Effect: Cc1nc(CN2C(=O)C[C@H]3[C@H]2CCN3C2CCOCC2)cs1
8.3

Determine its reported Percent Effect: COc1ccccc1CN1CC[C@]2(C[C@H](OC)CO2)C1
15

Determine its reported Percent Effect: Cc1cc(C(=O)N2C[C@@H]3COC[C@]3(c3nnc(C4CC4)o3)C2)on1
7.52

Determine its reported Percent Effect: c1ccc(-c2noc(CNC3CCc4ncnn4C3)n2)nc1 (centres undefined)
-5.57

Determine its reported Percent Effect: COc1ccccc1C(=O)N(C)Cc1ncc(C)c(OC)c1C
3.8

Determine its reported Percent Effect: Cc1nc(CN2CCCC(N(C)Cc3c(C)noc3C)C2)no1 (centres undefined)
16.6

Determine its reported Percent Effect: CCc1cnc(CNc2ccc(C(=O)N3CCCC(C)C3)cc2C)o1 (centres undefined)
8.78

Determine its reported Percent Effect: O=C(CSc1ccncc1)N1C[C@H]2CC[C@@H]1CN(Cc1cccnc1)C2
6.74

Determine its reported Percent Effect: Cc1ccc(CNC(=O)Nc2nnc(C)s2)cn1
15.1

Determine its reported Percent Effect: Cc1ccc(CNCc2ccc(-n3nc(C)cc3C)nc2)cc1
11.4

Determine its reported Percent Effect: O=C(CSc1nncs1)N1CCN(Cc2ccc(Cl)s2)CC1
18.1

Determine its reported Percent Effect: COc1ccc(OCc2cc(C(=O)N3CCN[C@H](C)C3)n[nH]2)c(Cl)c1
14.5

Determine its reported Percent Effect: O=S(=O)(N(Cc1ccccn1)C1CC1)N1CCCC1c1ccco1 (centres undefined)
0.359

Determine its reported Percent Effect: COCCN(C)CC(=O)N1C[C@H]2CC[C@@H]1CN(C(=O)c1ccncc1)C2
17.1

Determine its reported Percent Effect: O=C(CCNC(=O)c1ccoc1)Nc1c(F)cccc1F
18.8

Determine its reported Percent Effect: Cc1cccc(C2(CNC(=O)CCNS(C)(=O)=O)CCCC2)c1
6.31

Determine its reported Percent Effect: CCN1CCN(C2CCN(Cc3cc(C)on3)CC2)C1=O
7.94

Determine its reported Percent Effect: CN(C)CCN(C)C(=O)c1cnc2c(c1)nc(-c1ccccc1Cl)n2C
-1.29

Determine its reported Percent Effect: Cn1c(CN2CCN(CC3CC3)CC2)nnc1C1CCC1
4.44

Determine its reported Percent Effect: CCN(CC)C1CCN(C(=O)NCc2c(C)noc2C)CC1
10.9
